exon inclusion enrichment index values for the variants below.
B1: mRNA-splicing (parent)
chain: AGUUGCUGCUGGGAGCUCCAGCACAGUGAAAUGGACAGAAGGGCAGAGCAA

variants of: B1; assay: exon inclusion enrichment index; higher = more inclusion; WT1 exon 5 minigene, HEK293

MACROMOLECULE_SEQUENCE: AGUUACCACCGGGAGCUCCGACACAGUGAAAUGGACAGAAGGGCAGAGCAA [G5A U7C G8A U10C A20G G21A]
exon inclusion enrichment index: 2.82
//
MACROMOLECULE_SEQUENCE: AGUUGACGACGGGAGCUCCAGCACAGAGAAAUGGACAGAAGGGCAGAGCAA [C6A U7C C9A U10C U27A]
exon inclusion enrichment index: 3.6
//
MACROMOLECULE_SEQUENCE: AGUUACCACCGGGAGCUCCAGCACAGUGGCAUGGACAGAAGGGCAGAGCAA [G5A U7C G8A U10C A29G A30C]
exon inclusion enrichment index: 1.32
//
MACROMOLECULE_SEQUENCE: AGUUAACGCCGGGAGCUCCAGCACAGUGAAAUGGACAGAAGGGCAGAGCAA [G5A C6A U7C U10C]
exon inclusion enrichment index: 2.4
//
MACROMOLECULE_SEQUENCE: AGUUGAAGAAGGGAGCUCCAGCAACGUGAAAUGGACAGAAGGGCAGAGCAA [C6A U7A C9A U10A C24A A25C]
exon inclusion enrichment index: 2.22
//
MACROMOLECULE_SEQUENCE: AGUUGCUGCUGGGAUUUCCAGCACAGUGAAAUGGACAGAAGGGCAGAGCAA [G15U C16U]
exon inclusion enrichment index: 0.0329
//
MACROMOLECULE_SEQUENCE: AGUUAGGGAUGGGAGCUCCAGCACAGUGAAAUGGACUCAAGGGCAGAGCAA [G5A C6G U7G C9A A37U G38C]
exon inclusion enrichment index: 0.00236
//
MACROMOLECULE_SEQUENCE: AGUUUCUUUUGGGAGCUCCAGCACAGUGAAAUGGACAGAAUUGCAGAGCAA [G5U G8U C9U G41U G42U]
exon inclusion enrichment index: 0.11
//
MACROMOLECULE_SEQUENCE: AGUUAUAUAUGGGAGCUCCAGCACAGUGAAAUGGACAGAAGGUCAGAGCAA [G5A C6U U7A G8U C9A G43U]
exon inclusion enrichment index: 0.0904
//
MACROMOLECULE_SEQUENCE: AGUUCUUCUCGGGAGCUCCAGCAGUGUGAAAUGGACAGAAGGGCAGAGCAA [G5C C6U G8C C9U U10C C24G A25U]
exon inclusion enrichment index: 2.32
//
MACROMOLECULE_SEQUENCE: AGUUGAAAACGGGAGCUCCAGCACAGUGAAAUGGACAGAAGGGCAGAGCAA [C6A U7A G8A C9A U10C]
exon inclusion enrichment index: 1.36
